details: in isopropanol, 293.15 K
quantity_kind: solubility (mole fraction)
Please respond with just the number, no unit label.

Query: Return reported solubility (mole fraction); argument: CC(C(=O)O)c1ccc(CC2CCCC2=O)cc1 (stereo unspecified)
Response: 0.0874

====

details: in ethyl orthosilicate, 328.15 K
quantity_kind: solubility (mole fraction)

Query: Return reported solubility (mole fraction); argument: CC(C(=O)O)c1ccc(CC2CCCC2=O)cc1 (stereo unspecified)
Response: 0.0991

====

conditions: in isopropyl acetate, 293.15 K
quantity_kind: solubility (mole fraction)
Please respond with just the number, no unit label.

Query: Return reported solubility (mole fraction); argument: CC(C(=O)O)c1ccc(CC2CCCC2=O)cc1 (stereo unspecified)
Response: 0.0443

====

details: in isobutyl acetate, 288.15 K
quantity_kind: solubility (mole fraction)

Query: Return reported solubility (mole fraction); argument: CC(C(=O)O)c1ccc(CC2CCCC2=O)cc1 (stereo unspecified)
Response: 0.0314

====

conditions: in ethanol, 308.15 K
quantity_kind: solubility (mole fraction)
Please respond with just the number, no unit label.

Query: Return reported solubility (mole fraction); argument: CC(C(=O)O)c1ccc(CC2CCCC2=O)cc1 (stereo unspecified)
Response: 0.154

====

settings: in n-butyl acetate, 293.15 K
quantity_kind: solubility (mole fraction)

Query: Return reported solubility (mole fraction); argument: CC(C(=O)O)c1ccc(CC2CCCC2=O)cc1 (stereo unspecified)
Response: 0.0418

====

details: in methyl acetate, 318.15 K
quantity_kind: solubility (mole fraction)
Please respond with just the number, no unit label.

Query: Return reported solubility (mole fraction); argument: CC(C(=O)O)c1ccc(CC2CCCC2=O)cc1 (stereo unspecified)
Response: 0.205

====

settings: in n-propanol, 298.15 K
quantity_kind: solubility (mole fraction)
Please respond with just the number, no unit label.

Query: Return reported solubility (mole fraction); argument: CC(C(=O)O)c1ccc(CC2CCCC2=O)cc1 (stereo unspecified)
Response: 0.0905

====

conditions: in isopentyl acetate, 308.15 K
quantity_kind: solubility (mole fraction)
Please respond with just the number, no unit label.

Query: Return reported solubility (mole fraction); argument: CC(C(=O)O)c1ccc(CC2CCCC2=O)cc1 (stereo unspecified)
Response: 0.0674

====

settings: in n-propyl acetate, 328.15 K
quantity_kind: solubility (mole fraction)
Please respond with just the number, no unit label.

Query: Return reported solubility (mole fraction); argument: CC(C(=O)O)c1ccc(CC2CCCC2=O)cc1 (stereo unspecified)
Response: 0.261

====

settings: in methyl acetate, 328.15 K
quantity_kind: solubility (mole fraction)
Please respond with just the number, no unit label.

Query: Return reported solubility (mole fraction); argument: CC(C(=O)O)c1ccc(CC2CCCC2=O)cc1 (stereo unspecified)
Response: 0.325

====

details: in isopropyl acetate, 308.15 K
quantity_kind: solubility (mole fraction)

Query: Return reported solubility (mole fraction); argument: CC(C(=O)O)c1ccc(CC2CCCC2=O)cc1 (stereo unspecified)
Response: 0.0819

====

conditions: in methanol, 328.15 K
quantity_kind: solubility (mole fraction)
Please respond with just the number, no unit label.

Query: Return reported solubility (mole fraction); argument: CC(C(=O)O)c1ccc(CC2CCCC2=O)cc1 (stereo unspecified)
Response: 0.628

====

conditions: in n-butyl acetate, 318.15 K
quantity_kind: solubility (mole fraction)
Please respond with just the number, no unit label.

Query: Return reported solubility (mole fraction); argument: CC(C(=O)O)c1ccc(CC2CCCC2=O)cc1 (stereo unspecified)
Response: 0.122
